The values you see were collected from paper PMC3776780.

Assignment: determine reported pKi for the given molecules.
pKi: −log10 of the molar value.

Exam item: For SRC (Homo sapiens, UniProt P12931), provide pKi of OC1CCN(Cc2onc(-c3ccc(F)cc3)c2-c2ccnc(NC3CCCCC3)n2)CC1 [V-05-013] please.
Marked response: < 6.00

Exam item: For SRC (Homo sapiens, UniProt P12931), provide pKi of OC[C@@H]1CCCN1Cc1onc(-c2ccc(F)cc2)c1-c1ccnc(NC2CCCCC2)n1 [V-05-014] please.
Marked response: < 6.00

Exam item: For SRC (Homo sapiens, UniProt P12931), provide pKi of Fc1ccc(-c2noc(CN3CCCCC3)c2-c2ccnc(NC3CCCCC3)n2)cc1 [V-05-015] please.
Marked response: < 6.00

----------
Reported values: pKi for PKA (Homo sapiens, UniProt P17612), one per item.
pKi: −log10 of the molar value.

Exam item: Given the entry OC1CCN(Cc2onc(-c3ccc(F)cc3)c2-c2ccnc(NC3CCCCC3)n2)CC1 [V-05-013] , report its measured pKi.
Marked response: < 6.00

Exam item: Given the entry OC[C@@H]1CCCN1Cc1onc(-c2ccc(F)cc2)c1-c1ccnc(NC2CCCCC2)n1 [V-05-014] , report its measured pKi.
Marked response: < 6.00

Exam item: Given the entry Fc1ccc(-c2noc(CN3CCCCC3)c2-c2ccnc(NC3CCCCC3)n2)cc1 [V-05-015] , report its measured pKi.
Marked response: < 6.00

----------
RECORDED_ENDPOINT: Ki

Exam item: For COT (Homo sapiens, UniProt P41279), provide Ki of OC[C@@H]1CCCN1Cc1onc(-c2ccc(F)cc2)c1-c1ccnc(NC2CCCCC2)n1 please.
Marked response: > 1000 nM

----------
pKi: −log10 of the molar value.
Reported values: pKi for ROCK1 (Homo sapiens), one per item.

Exam item: Given the entry OC[C@@H]1CCCN1Cc1onc(-c2ccc(F)cc2)c1-c1ccnc(NC2CCCCC2)n1 , report its measured pKi.
Marked response: < 6.00

Exam item: Given the entry Fc1ccc(-c2noc(CN3CCCCC3)c2-c2ccnc(NC3CCCCC3)n2)cc1 , report its measured pKi.
Marked response: < 6.00

Exam item: Given the entry OC1CCN(Cc2onc(-c3ccc(F)cc3)c2-c2ccnc(NC3CCCCC3)n2)CC1 , report its measured pKi.
Marked response: < 6.00

----------
Assignment: determine reported Ki for the given compounds.
# TESTED_ON: ERK2 (Homo sapiens)
# Sequence (P28482 whole entry, species assumed): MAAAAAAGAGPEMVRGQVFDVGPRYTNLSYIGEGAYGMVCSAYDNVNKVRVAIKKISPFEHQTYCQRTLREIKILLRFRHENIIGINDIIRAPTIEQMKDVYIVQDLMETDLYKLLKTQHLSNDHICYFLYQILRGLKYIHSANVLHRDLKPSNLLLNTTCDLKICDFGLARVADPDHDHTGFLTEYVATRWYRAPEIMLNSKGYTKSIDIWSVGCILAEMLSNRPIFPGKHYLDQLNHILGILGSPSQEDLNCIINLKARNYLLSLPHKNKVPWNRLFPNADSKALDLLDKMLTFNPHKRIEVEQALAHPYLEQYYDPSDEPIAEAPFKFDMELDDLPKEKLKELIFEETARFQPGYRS
# EXPERIMENT_SUMMARY: spectrophotometric coupled-enzyme kinase inhibition assay
# Format: biochemical
# ASSAY_SETUP: read-out: Ki or IC50 ERK2

Exam item: Given the entry Fc1ccc(-c2noc(CN3CCCCC3)c2-c2ccnc(NC3CCCCC3)n2)cc1 [V-05-015] , report its measured Ki.
Marked response: > 1000 nM

Exam item: Given the entry OC1CCN(Cc2onc(-c3ccc(F)cc3)c2-c2ccnc(NC3CCCCC3)n2)CC1 [V-05-013] , report its measured Ki.
Marked response: > 1000 nM

Exam item: Given the entry OC[C@@H]1CCCN1Cc1onc(-c2ccc(F)cc2)c1-c1ccnc(NC2CCCCC2)n1 [V-05-014] , report its measured Ki.
Marked response: > 1000 nM

----------
Assignment: determine reported Ki for the given compounds.
# TESTED_ON: GSK3β (Homo sapiens)
# Sequence (P49841 whole entry, species assumed): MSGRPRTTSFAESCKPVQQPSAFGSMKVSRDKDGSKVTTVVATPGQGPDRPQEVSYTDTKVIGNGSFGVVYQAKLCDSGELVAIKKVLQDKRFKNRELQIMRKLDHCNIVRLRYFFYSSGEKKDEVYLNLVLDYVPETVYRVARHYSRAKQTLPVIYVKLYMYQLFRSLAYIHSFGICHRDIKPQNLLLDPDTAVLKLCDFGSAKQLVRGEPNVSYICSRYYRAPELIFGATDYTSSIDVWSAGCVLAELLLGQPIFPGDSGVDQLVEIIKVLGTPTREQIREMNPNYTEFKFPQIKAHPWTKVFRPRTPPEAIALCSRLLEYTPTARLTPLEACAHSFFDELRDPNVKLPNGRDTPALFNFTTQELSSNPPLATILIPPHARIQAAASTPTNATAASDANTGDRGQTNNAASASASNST
# EXPERIMENT_SUMMARY: spectrophotometric coupled-enzyme kinase inhibition assay
# Format: biochemical
# ASSAY_SETUP: read-out: Ki or IC50 GSK3β

Exam item: Given the entry OC[C@@H]1CCCN1Cc1onc(-c2ccc(F)cc2)c1-c1ccnc(NC2CCCCC2)n1 , report its measured Ki.
Marked response: > 1000 nM

Exam item: Given the entry Fc1ccc(-c2noc(CN3CCCCC3)c2-c2ccnc(NC3CCCCC3)n2)cc1 , report its measured Ki.
Marked response: > 1000 nM
